tested on: LXRa:RXRa (NR concentration 270 nM, RXRa partner concentration 90 nM); assay: PBM binding z-score (relative to random genomic background probes); higher = stronger binding; sequences stand for … in GC…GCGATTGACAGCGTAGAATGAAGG
Answer rule not met if PBM binding z-score is under 2, and rule met if it is 2 or more.

>  <query.sequence>
CCTGCTAGGTCATGGACAGCTAATCTACAGTATG

>  <classification>
rule met

$$$$
>  <query.sequence>
CCTAGTTGGTCAGGAGTTCACACACCGGATATGA

>  <classification>
rule met

$$$$
>  <query.sequence>
TAGCCTAGGTGATTCAGGGGCCAGTATAGAAAGC

>  <classification>
rule not met

$$$$
>  <query.sequence>
TCTTGTAGATCAATAGAGGTTATGAAAGTGCGCT

>  <classification>
rule met

$$$$
>  <query.sequence>
ACTAGCAGGCCAAGTTTGGCTCACTCAAACAAAG

>  <classification>
rule not met

$$$$
>  <query.sequence>
CGTCAAAGTTCAACTAAGGTAACGTACAGCACGC

>  <classification>
rule met

$$$$
>  <query.sequence>
CCTCGTTGGTCAAGGTCACACACGCTATAGGTAC

>  <classification>
rule met

$$$$
>  <query.sequence>
CCGCCTGGGGCATAAGGTTACCATAAGCCAGCCC

>  <classification>
rule met

$$$$
>  <query.sequence>
ATCTCTAGGTAACAAGTTCACTGAAAGAGAGGAC

>  <classification>
rule not met

$$$$
>  <query.sequence>
CAAACTAGGTCACCGGAGGGTCAAAGTCCGCATG

>  <classification>
rule met

$$$$
>  <query.sequence>
GCGACTGGGGCATCAGCAGGTTACAATAACTTAA

>  <classification>
rule not met

$$$$
>  <query.sequence>
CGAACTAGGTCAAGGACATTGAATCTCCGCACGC

>  <classification>
rule met

$$$$
>  <query.sequence>
GCTGCTAGGTCAGGTCGGTCAGCTAACGGGTACG

>  <classification>
rule not met

$$$$
>  <query.sequence>
CGAACGAGCGCATGAGTTGATAGCAAATGCCGAT

>  <classification>
rule not met

$$$$
>  <query.sequence>
TTACCATGGTGAAAGGTCGTTGATGCACGCCTTG

>  <classification>
rule not met

$$$$
>  <query.sequence>
ACAGACAGGTGAGTGAAGGTAACGCAGCTGGACG

>  <classification>
rule not met

$$$$
>  <query.sequence>
CTTACAGGGTCAGCTAGGCCAGAGTAGGGACGGC

>  <classification>
rule met

$$$$
>  <query.sequence>
TCATATAGGTATAAGGTGAAAGTCGGTGTGGTAA

>  <classification>
rule not met

$$$$
>  <query.sequence>
CGTCCAAGGTCAAGGTCAGTAAAAGAGACTCGAA

>  <classification>
rule met

$$$$
>  <query.sequence>
CGAACTAGGTCATTGACAGGTCAGTGAATAGTAA

>  <classification>
rule met

$$$$
>  <query.sequence>
GCTATTAGTTGAAAGGGCAACCTAATGATTCTCG

>  <classification>
rule not met

$$$$
>  <query.sequence>
TCCCGGAGGACACGAAGGTCAGAGCTTTCCAGAG

>  <classification>
rule not met

$$$$
>  <query.sequence>
CATATAGGGTCAGCTAGGCCAGAGTAGGGACGGC

>  <classification>
rule met

$$$$
>  <query.sequence>
ACAGACAGGTGAGAGAAGGTAACTCAGCTGGACG

>  <classification>
rule not met

$$$$
